# assay.system: Complement C1s subcomponent (Homo sapiens, UniProt P09871)
# Sequence (P09871 whole entry): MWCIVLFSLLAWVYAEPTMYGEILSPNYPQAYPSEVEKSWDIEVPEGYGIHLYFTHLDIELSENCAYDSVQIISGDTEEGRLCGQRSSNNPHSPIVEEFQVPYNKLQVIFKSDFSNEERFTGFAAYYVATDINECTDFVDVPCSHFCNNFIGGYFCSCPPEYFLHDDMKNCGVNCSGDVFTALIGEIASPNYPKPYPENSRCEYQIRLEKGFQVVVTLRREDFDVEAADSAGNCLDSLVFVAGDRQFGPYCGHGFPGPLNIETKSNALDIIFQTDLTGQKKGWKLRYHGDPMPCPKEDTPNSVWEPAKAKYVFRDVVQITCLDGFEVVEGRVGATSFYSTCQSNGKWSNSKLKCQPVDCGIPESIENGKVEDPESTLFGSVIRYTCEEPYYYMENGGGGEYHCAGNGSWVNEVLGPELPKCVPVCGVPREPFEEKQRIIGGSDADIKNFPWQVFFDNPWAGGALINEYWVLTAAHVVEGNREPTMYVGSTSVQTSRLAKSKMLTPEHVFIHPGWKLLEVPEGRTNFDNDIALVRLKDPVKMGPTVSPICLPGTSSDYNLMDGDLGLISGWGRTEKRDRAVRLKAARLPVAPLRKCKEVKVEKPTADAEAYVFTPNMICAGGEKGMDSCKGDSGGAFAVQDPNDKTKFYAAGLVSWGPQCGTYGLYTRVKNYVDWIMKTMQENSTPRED
Note to self: use true (1) only for Ki readings below 200 nM; a reading exactly at 200 nM still gets false (0).

given_smiles=CSc1sc(C(=N)N)cc1S(=O)(=O)c1cccc(-c2ccccc2C)c1 qualitative_label="true (1)"

// next entry
input: Please determine if `CSc1sc(C(=N)N)cc1S(=O)(=O)c1cccc(-c2c(C)cccc2NC(=O)CS(C)(=O)=O)c1` is below 200 nM in terms of Ki.
output: true (1)

----------
# assay.system: Complement C1s subcomponent (Homo sapiens, UniProt P09871)
Mark each entry MET if its Ki sits below 200 nM, and NOT MET for all others.

Take a look at these entries with their results.
given_smiles=CSc1sc(C(=N)N)cc1S(=O)(=O)c1cccc(-c2c(C)cccc2NC(=O)CCCS(C)(=O)=O)c1 qualitative_label=MET
given_smiles=CSc1sc(C(=N)N)cc1S(=O)(=O)c1cccc(-c2ccc(C)cc2)c1 qualitative_label="NOT MET"
given_smiles=CSc1sc(C(=N)N)cc1S(=O)(=O)c1cccc(-c2cccc(C)c2)c1 qualitative_label="NOT MET"

Below: the item to evaluate.
input: is_below(Ki, 200 nM) for `COc1cccc(-c2cccc(S(=O)(=O)c3cc(C(=N)N)sc3SC)c2)c1` ?
output: NOT MET

----------
Target protein (sequence): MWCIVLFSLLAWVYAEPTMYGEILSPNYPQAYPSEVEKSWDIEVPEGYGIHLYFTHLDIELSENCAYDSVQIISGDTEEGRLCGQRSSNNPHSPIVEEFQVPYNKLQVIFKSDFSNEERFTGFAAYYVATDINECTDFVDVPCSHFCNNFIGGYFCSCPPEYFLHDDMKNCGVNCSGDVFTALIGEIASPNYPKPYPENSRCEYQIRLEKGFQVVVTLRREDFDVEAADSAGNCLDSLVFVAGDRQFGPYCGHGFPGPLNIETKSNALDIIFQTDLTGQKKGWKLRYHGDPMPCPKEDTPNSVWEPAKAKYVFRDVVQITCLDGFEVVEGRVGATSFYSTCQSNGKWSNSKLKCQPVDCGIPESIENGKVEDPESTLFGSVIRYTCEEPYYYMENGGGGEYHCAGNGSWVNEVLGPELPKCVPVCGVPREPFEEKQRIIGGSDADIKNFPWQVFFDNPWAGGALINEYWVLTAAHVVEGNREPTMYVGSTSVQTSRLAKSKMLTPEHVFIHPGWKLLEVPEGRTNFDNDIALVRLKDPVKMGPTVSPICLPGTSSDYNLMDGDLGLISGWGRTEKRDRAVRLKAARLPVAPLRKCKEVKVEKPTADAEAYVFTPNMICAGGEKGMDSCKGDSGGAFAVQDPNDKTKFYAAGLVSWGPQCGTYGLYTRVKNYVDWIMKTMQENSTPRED
metric: pKi
To interpret pKi, take it as minus log10 of a concentration measured in moles per litre.

given_smiles=CSc1sc(C(=N)N)cc1S(=O)(=O)c1cccc(-c2c(C)cccc2C(=O)O)c1 metric=pKi result=6.82
given_smiles=C=Cc1ccccc1-c1cccc(S(=O)(=O)c2cc(C(=N)N)sc2SC)c1 metric=pKi result=6.85
given_smiles=CSc1sc(C(=N)N)cc1S(=O)(=O)c1cccc(-c2ccc(O)cc2)c1 metric=pKi result=6.72

API: the following record is the query input.
input: Which value of pKi has been reported for `CSc1sc(C(=N)N)cc1S(=O)(=O)c1cccc(-c2ccccc2Cl)c1` in the records?
output: 7.40
